Where these numbers come from: patent US20050037969A1

Molecular target: T1, K559 PDZ-GST fusion protein (Homo sapiens (Human), UniProt Q9Y6V0 4489-4593)
T1 construct: Order of GST and PDZ part and limits not seen in the excerpts
T1 sequence: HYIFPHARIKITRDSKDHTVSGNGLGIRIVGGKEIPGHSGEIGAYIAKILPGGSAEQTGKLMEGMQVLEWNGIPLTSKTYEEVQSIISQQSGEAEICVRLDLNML
Test: A/G assays
Ends that are not written are not given here. * marks the point of attachment. Biotin = O=C1N[C@H]2[C@H](CS[C@H]2CCCCC(=O)*)N1
TEST_READOUT: binding result

These solved cases illustrate the format of a correct answer.
INSERT INTO assay_data (binder, obs_value) VALUES
  ('Biotin-ARHRVTSYTSSSVNVSSNL [CDW128A (IL8RA) C-terminal peptide AA29.1L, biotinylated]', 'no binding'),
  ('Biotin-ISGTPTSTMVHGMTSSSSVV [Clasp-2 C-terminal peptide AA2L, biotinylated]', 'no binding'),
  ('Biotin-KKGTYLTDETHREVKFTSL [CD46 (Form 1) C-terminal peptide AA10L, biotinylated]', 'no binding'),
  ('Biotin-KDITSDSENSNFRNEIQSLV (also called CD95 (Apo-1/Fas); AAI3L) [CD95 (Fas) C-terminal peptide AA13L, biotinylated]', 'no binding');

Query: Fill blank: measured binding result of the binder Biotin-QFMTADETRNLQNVDMKIGV (also called CD44 (long form)) [CD44 C-terminal peptide AA9L, biotinylated] is ____.
Response: no binding

Query: Fill blank: measured binding result of the binder Biotin-LERVSSTSPSTGEHELSAGF (Only the last four residues are seen in the excerpts) [CC CKR-1R C-terminal peptide AA41L] is ____.
Response: no binding

Query: Fill blank: measured binding result of the binder Biotin-DLGNMEENKKLEENNHKTEA (also called CD166 (CD6L)) [CD166 C-terminal peptide AA20L, biotinylated] is ____.
Response: no binding
